Assay: solvent given as SMILES
Conditions: in C1COCCO1
# absorption maximum listing for each entry below
Output spec: scalar in nm, unitless text.

c1ccc(Nc2nc(Nc3ccccc3)nc(Nc3ccc4cc5ccccc5cc4c3)n2)cc1
402
COc1ccc(C2=C/C(=C\c3ccc(C#N)cc3)C(=O)N2)cc1OC
457
Cc1ccc(C(=O)/C=C2\C(=O)Nc3ccccc32)cc1C
335
CN(C)c1ccc2c(c1)C(=O)NC2=O
378
Oc1cccc(/N=C/c2ccccc2Oc2ccccc2)c1
325
O=Cc1cc(O)c(C=O)cc1O
414
c1ccc(-c2nc(-c3ccc(-c4ccc(-c5ccc(-c6nc(-c7ccccc7)c(-c7ccccc7)o6)cc5)cc4)cc3)oc2-c2ccccc2)cc1
352
COc1ccc(C2=C/C(=C\c3ccccc3)C(=O)N2)cc1OC
431
CC(=O)Nc1ccc(C2=C/C(=C\c3ccc(C#N)cc3)C(=O)N2CC(C)C)cc1
450
N#Cc1nc2c(OCc3ccccc3)nc(N)nc2n1Cc1ccccc1
313

Attention now shifts to the item below.
Ask | // Input: NC(=O)Cc1cccc2ccccc12 . Output its absorption maximum only.
Reply | 283
